TARGET OF ASSAY: human P2X4 (Homo sapiens)
PROCEDURE DETAILS: Human P2X4 HEK Cell FLIPR Assay
Assay type: cell-based
CONDITION DETAILS: HEK293, HEK293 cells, agonist Bz-ATP at EC80; percentage of maximal inhibition; read-out: Human P2X4 HEK Cells (FLIPR Assay) avg Efficacy [%]
ASSAY READOUT: Emax (%)
One number for each entry, in %.

Worked examples, 5 molecules total:
Give the measured Emax of NS(=O)(=O)c1cc(NC(=O)Cc2ccccc2Cl)ccc1-n1cc(-c2cccnc2)cn1 .
88

# repeat for NS(=O)(=O)c1cc(NC(=O)Cc2ccc(C(F)F)cc2)ccc1-c1cncc(C(F)(F)F)c1
85

# repeat for NS(=O)(=O)c1cc(NC(=O)Cc2ccccc2F)ccc1-n1cc(F)cn1
82

# repeat for NS(=O)(=O)c1cc(NC(=O)Cc2cccc(C(F)(F)F)c2Cl)ccc1-n1cc(F)cn1
92

# repeat for N#Cc1cnn(-c2cc(C(F)(F)F)c(NC(=O)Cc3cc(C(F)(F)F)ccc3Cl)cc2S(N)(=O)=O)c1
71

Go through the list and state Emax for each entry.
1. Cc1nc(-c2ccc(NC(=O)Cc3ccccc3Cl)cc2S(N)(=O)=O)sc1C
2. NS(=O)(=O)c1cc(NC(=O)Cc2ccccc2F)ccc1-c1cncc(C(F)(F)F)c1
3. NS(=O)(=O)c1cc(NC(=O)Cc2ccccc2Cl)ccc1-n1ncc(C(F)(F)F)n1
4. Cc1cccc(CC(=O)Nc2ccc(-n3cc(Cl)cn3)c(S(N)(=O)=O)c2)c1
5. NS(=O)(=O)c1cc(NC(=O)Cc2ccccc2Cl)ccc1-c1cnn(CCO)c1

49
63
92
79
95

----------
TARGET OF ASSAY: human P2X4 (Homo sapiens)
PROCEDURE DETAILS: Human P2X4 HEK Cell FLIPR Assay
CONDITION DETAILS: HEK293 cells, agonist Bz-ATP at EC80; individual values listed where some fall outside detection range
ASSAY READOUT: IC50 (nM)
Numbers only, in nM.

Worked examples, 5 molecules total:
Missing value: IC50, human P2X4 (Homo sapiens), entry Cn1c(C#N)ccc1-c1ccc(NC(=O)Cc2ccccc2Cl)cc1S(N)(=O)=O . Fill in?
33

# repeat for NS(=O)(=O)c1cc(NC(=O)Cc2ccccc2F)ccc1-n1cc(NCC(F)F)cn1
106

# repeat for NS(=O)(=O)c1cc(NC(=O)Cc2ccc(C(F)F)cc2)ccc1-n1cc(C(F)(F)F)nn1
84

# repeat for COc1ccc(Cl)c(CC(=O)Nc2ccc(-n3cc(Cl)cn3)c(S(N)(=O)=O)c2)c1
202

# repeat for NS(=O)(=O)c1cc(NC(=O)Cc2ccccc2F)ccc1-n1cc(C(F)F)cn1
89

Go through the list and state IC50 for each entry.
1. NS(=O)(=O)c1cc(NC(=O)Cc2cc(Cl)ccc2F)ccc1-c1cnn(C2CC2)c1
2. NS(=O)(=O)c1cc(NC(=O)Cc2ccccc2Cl)ccc1-c1cnn(CC2CC2)c1
3. NS(=O)(=O)c1cc(NC(=O)Cc2ccccc2Cl)ccc1-c1cnc(C2CC2)s1
4. NS(=O)(=O)c1cc(NC(=O)Cc2ccccc2F)ccc1-c1nnc(C(F)F)o1
5. COCCc1cnn(-c2ccc(NC(=O)Cc3ccccc3F)cc2S(N)(=O)=O)c1
6. N#Cc1ccc(Cl)c(CC(=O)Nc2ccc(-n3cc(C(F)(F)F)cn3)c(S(N)(=O)=O)c2)c1

1: 152; 2: 2; 3: 86; 4: 149; 5: 352; 6: 496

Go through the list and state IC50 for each entry.
1. NS(=O)(=O)c1cc(NC(=O)Cc2cccnc2Cl)ccc1-n1cc(Cl)cn1
2. NS(=O)(=O)c1cc(NC(=O)Cc2cc(Br)ccc2Cl)ccc1-n1cc(C(F)(F)F)cn1
3. N#Cc1cnn(-c2ncc(NC(=O)Cc3ccccc3Cl)cc2S(N)(=O)=O)c1

1. 2320
2. 474
3. 45

----------
TARGET OF ASSAY: human P2X4 (Homo sapiens, UniProt Q99571)
Sequence (Q99571 whole entry): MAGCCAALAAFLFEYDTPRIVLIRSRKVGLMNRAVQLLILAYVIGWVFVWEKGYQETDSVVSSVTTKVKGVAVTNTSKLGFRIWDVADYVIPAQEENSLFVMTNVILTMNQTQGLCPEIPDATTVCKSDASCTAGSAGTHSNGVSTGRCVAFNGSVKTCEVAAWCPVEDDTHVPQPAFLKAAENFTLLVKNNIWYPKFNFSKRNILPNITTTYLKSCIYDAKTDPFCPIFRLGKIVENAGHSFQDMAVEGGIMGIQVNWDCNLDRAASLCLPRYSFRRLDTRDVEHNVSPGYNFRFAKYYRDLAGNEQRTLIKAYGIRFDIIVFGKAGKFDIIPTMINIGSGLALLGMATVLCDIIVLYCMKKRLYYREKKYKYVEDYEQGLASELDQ
PROCEDURE DETAILS: Human P2X4 HEK Cell FLIPR Assay
CONDITION DETAILS: HEK293 cells, agonist Bz-ATP at EC80; individual values listed where some fall outside detection range
Description: HEK293 cells stably expressing human P2X4 were plated in poly-D-lysine-coated 384-well plates at a seeding density of 30000 cells/well and incubated overnight. P2X4 function was assessed by measuring intracellular calcium changes using the calcium-chelating dye Fluo8-AM (Molecular Devices) on a fluorescent imaging plate reader (FLEX/FLIPR station; Molecular Devices). […] The EC80 value of Bz-ATP was determined each assay day prior to compound profiling. […]
ASSAY READOUT: IC50 (nM)
Answers are plain numbers, in nM.

Worked examples, 10 molecules total:
Give the measured IC50 of NS(=O)(=O)c1cc(NC(=O)Cc2ccccc2Cl)ccc1-n1cnc(Cl)c1 .
31

# repeat for N#Cc1cnn(-c2ccc(NC(=O)Cc3ccc(O)cc3Cl)cc2S(N)(=O)=O)c1
22

# repeat for N#Cc1cnn(-c2cc(C(F)(F)F)c(NC(=O)Cc3cccc(C(F)(F)F)c3Cl)cc2S(N)(=O)=O)c1
2330

# repeat for NS(=O)(=O)c1cc(NC(=O)Cc2ccccc2Cl)ccc1-c1cnn(C(F)F)c1C(F)(F)F
531

# repeat for NS(=O)(=O)c1cc(NC(=O)Cc2cccnc2Cl)ccc1-n1cc(F)cn1
2600

# repeat for NS(=O)(=O)c1cc(NC(=O)Cc2ccccc2Cl)ccc1-c1cncc(OC(F)(F)F)c1
115

# repeat for NS(=O)(=O)c1cc(NC(=O)Cc2ccccc2F)ccc1-n1cc(CC(F)(F)F)cn1
105

# repeat for N#Cc1ncn(-c2ccc(NC(=O)Cc3ccccc3Cl)cc2S(N)(=O)=O)n1
357

# repeat for Cn1nc(-c2ccc(NC(=O)Cc3ccccc3Cl)cc2S(N)(=O)=O)cc1C(C)(C)O
275

# repeat for NS(=O)(=O)c1cc(NC(=O)Cc2ccccc2F)ccc1-n1cc(Br)cn1
130

Go through the list and state IC50 for each entry.
1. N#Cc1cncc(-c2ccc(NC(=O)Cc3ccccc3Cl)cc2S(N)(=O)=O)c1
2. NS(=O)(=O)c1cc(NC(=O)Cc2ccccc2Cl)ccc1-c1cnc(C2CC2)o1
3. N#Cc1cnn(-c2ccc(NC(=O)Cc3cc(Cl)ccc3Cl)cc2S(N)(=O)=O)c1
4. NS(=O)(=O)c1cc(NC(=O)Cc2ccccc2Cl)ccc1-c1ccc(Cl)nc1
5. NS(=O)(=O)c1cc(NC(=O)Cc2ccccc2Cl)ccc1-n1nc2cc(F)cc(F)c2n1
6. NS(=O)(=O)c1cc(NC(=O)Cc2ccccc2Cl)ccc1-n1cc(C(=O)N2CCCC2)cn1
7. NS(=O)(=O)c1cc(NC(=O)Cc2cc(Cl)ccc2Cl)ccc1-n1cc(Cl)cn1

1: 56; 2: 4; 3: 75; 4: 19; 5: 2340; 6: 181; 7: 499

Go through the list and state IC50 for each entry.
1. N#Cc1cnn(-c2ncc(NC(=O)Cc3ccccc3F)cc2S(N)(=O)=O)c1
2. NS(=O)(=O)c1cc(NC(=O)Cc2ccccc2Cl)ccc1-n1cc(-c2cccnc2)cn1

[315, 16]

----------
TARGET OF ASSAY: human P2X4 (Homo sapiens)
PROCEDURE DETAILS: Human P2X4 HEK Cell FLIPR Assay
Type: cell-based
CONDITION DETAILS: HEK293, HEK293 cells, agonist Bz-ATP at EC80; percentage of maximal inhibition; read-out: Human P2X4 HEK Cells (FLIPR Assay) avg Efficacy [%]
We use 90% as the dividing line for Emax: on or above the line is 1, below is 0.

Determine whether this compound has Emax no lower than 90%: Cc1ccccc1CC(=O)Nc1ccc(-n2cc(Cl)cn2)c(S(N)(=O)=O)c1 [Example 173]
0

# repeat for NS(=O)(=O)c1cc(NC(=O)Cc2cccc(F)c2Cl)ccc1-c1cnn(C2CC2)c1 [Example 337]
1

# repeat for NS(=O)(=O)c1cc(NC(=O)Cc2cccc(C(F)(F)F)c2Cl)c(C(F)(F)F)cc1-n1cc(F)cn1 [Example 536]
0

# repeat for COCCc1cnn(-c2ccc(NC(=O)Cc3ccccc3F)cc2S(N)(=O)=O)c1 [Example 265]
0

# repeat for NS(=O)(=O)c1cc(NC(=O)Cc2ccccc2Cl)ccc1-c1cncc(F)c1 [Example 327]
1

***
Determine whether this compound has Emax no lower than 90%: NS(=O)(=O)c1cc(NC(=O)Cc2ccccc2Cl)ccc1-c1ccccc1 [Example 266]
1

# repeat for NS(=O)(=O)c1cc(NC(=O)Cc2ccccc2Cl)ccc1-c1cnn(CCN2CCCC2)c1 [Example 281]
0

# repeat for N#Cc1cnn(-c2ccc(NC(=O)Cc3ccccc3Cl)cc2S(N)(=O)=O)c1 [Example 39]
1

# repeat for Cc1cc(F)c(Br)cc1CC(=O)Nc1ccc(-n2cc(Cl)cn2)c(S(N)(=O)=O)c1 [Example 104]
1

----------
TARGET OF ASSAY: human P2X4 (Homo sapiens, UniProt Q99571)
PROCEDURE DETAILS: Human P2X4 HEK Cell FLIPR Assay
CONDITION DETAILS: HEK293 cells, agonist Bz-ATP at EC80; individual values listed where some fall outside detection range
ASSAY READOUT: IC50

Worked examples, 5 molecules total:
Give the measured IC50 of NS(=O)(=O)c1cc(NC(=O)Cc2cc(F)cc(F)c2)ccc1-n1cc(Cl)cn1 [Example 83] .
> 25000 nM

# repeat for NS(=O)(=O)c1cc(NC(=O)Cc2ccccc2F)ccc1-c1cnn(C2CCNCC2)c1 [Example 270]
> 25000 nM

# repeat for COc1ccc(CC(=O)Nc2ccc(-n3cc(C(F)(F)F)cn3)c(S(N)(=O)=O)c2)cc1 [Example 121]
292 nM

# repeat for COc1ccc(CC(=O)Nc2ccc(-n3cc(C(F)(F)F)cn3)c(S(N)(=O)=O)c2)c(Cl)c1 [Example 135]
73 nM

# repeat for COc1cccc(Cl)c1CC(=O)Nc1ccc(-n2cc(Cl)cn2)c(S(N)(=O)=O)c1 [Example 105]
108 nM

Go through the list and state IC50 for each entry.
1. Cc1cc(F)c(Br)cc1CC(=O)Nc1ccc(-n2cc(C(F)(F)F)cn2)c(S(N)(=O)=O)c1 [Example 141]
2. Cn1ccc(-c2ccc(NC(=O)Cc3ccccc3Cl)cc2S(N)(=O)=O)c1 [Example 529]
3. NS(=O)(=O)c1cc(NC(=O)Cc2c(Cl)cccc2C(F)(F)F)c(C(F)(F)F)cc1-n1cc(F)cn1 [Example 535]
4. NS(=O)(=O)c1cc(NC(=O)Cc2ccccc2Cl)ccc1-c1cnn(C2CCNCC2)c1 [Example 269]

1. 638 nM
2. 72 nM
3. 3840 nM
4. 1040 nM
